The origin of these recorded values is ChEMBL document CHEMBL5352465.

assay overview: Selectivity index, ratio of CC50 for […] to ratio of IC50 for antileishmanial activity against Leishmania infantum promastigote
Type: toxicity, cell-based
details: read-out: Ratio CC50/IC50
value kind: selectivity ratio

>>> reading("O=C1c2ccccc2C(=O)N1Nc1nc(-c2ccc(Cl)cc2Cl)cs1")
6.4
>>> reading("O=C1c2ccccc2C(=O)N1Nc1nc(-c2ccc3ccccc3c2)cs1")
12.5

----------
List of selectivity ratio values.
assay overview: Selectivity index, ratio of CC50 for human CC cells to ratio of IC50 for antileishmanial activity against Leishmania major promastigote
Format: toxicity
details: read-out: Ratio CC50/IC50
value kind: selectivity ratio

>>> reading("O=[N+]([O-])c1ccc(-c2nnc(NCCCO)s2)s1")
14
>>> reading("COCCCNc1nnc(-c2ccc([N+](=O)[O-])s2)s1")
2

----------
assay overview: Selectivity index, ratio of CC50 for mouse J774.A1 cells to ratio of IC50 for antitrypanosomal activity against bloodstream Trypanosoma cruzi NINOA strain trypomastigotes
Format: toxicity
details: read-out: Ratio CC50/IC50
Parameter selectivity ratio: see the listing below.
value kind: selectivity ratio

>>> reading("Fc1c(F)c(F)c(CSc2nc3ccccc3s2)c(F)c1F")
1.69
>>> reading("Fc1cccc(F)c1CSc1nc2ccccc2s1")
4.48

----------
Overview of reported pIC50 across a group of compounds:
Tested on: Trypanosoma cruzi
assay overview: Antitrypanosomal activity against Trypanosoma cruzi arequipa strain amastigotes assessed as parasite growth inhibition incubated for 48 hrs by resazurin staining based analysis
Assay type: functional, organism-based
pIC50: −log10 of the molar value.
value kind: pIC50

>>> reading("N#C[Se]Cc1cccc(C#N)c1")
6.10
>>> reading("CSc1ccc(C[Se][Se]Cc2ccc(SC)cc2)cc1")
5.92
>>> reading("FC(F)(F)c1ccc(C[Se][Se]Cc2ccc(C(F)(F)F)cc2)cc1")
6.10

----------
assay overview: Selectivity index, ratio of CC50 for mouse J774.A1 cells to ratio of IC50 for antitrypanosomal activity against bloodstream Trypanosoma cruzi INC-5 strain trypomastigotes
Format: toxicity
details: read-out: Ratio CC50/IC50
selectivity ratio values for the compounds below.
value kind: selectivity ratio

>>> reading("Clc1ccc(CSc2nc3ccccc3s2)cc1")
"> 3.42"
>>> reading("c1ccc(CSc2nc3ccccc3s2)cc1")
"> 2.68"
>>> reading("COc1ccc(CSc2nc3ccccc3s2)cc1")
"> 3.26"
